test: ATG_MRE_CIS: Attagene CIS-FACTORIAL HepG2 Assay for human Metal Responsive Element (MRE) (AID 2282954); settings: HepG2 MRE cis-reporter transcription, Attagene multiplex; actives raise or lower the signal
Activity calls are given as the source filed them. The calls were made as follows: active = hit-call score of the fitted dose curve at least 0.9, where 1 is the maximum; inactive = score below 0.9.
READOUT TYPE: AC50

Please review the entries below; each comes with its answer.
| COMPOUND | AC50 |
| --- | --- |
| Nc1cc(Cl)c(N)c(Cl)c1 | inactive |
| CCCCC(CC)COP(=O)(O)OCC(CC)CCCC (stereo not drawn) | inactive |
| CC/C=C\CCOC(C)=O | inactive |
| CCO[Si](CCC(F)(F)C(F)(F)C(F)(F)C(F)(F)C(F)(F)C(F)(F)F)(OCC)OCC | inactive |
| CC(C)OC(=O)c1ccccc1C(=O)OC(C)C | inactive |

# return AC50 for each item in the list
1. C=CC(F)(F)C(F)(F)C(F)(F)C(F)(F)C(F)(F)C(F)(F)C(F)(F)C(F)(F)C=C
2. O=C(C=Cc1ccccc1)OCC=Cc1ccccc1
3. FC(F)(I)C(F)(F)C(F)(F)C(F)(F)I

Resp:
["inactive", "inactive", "inactive"]

Would you mind giving AC50 for every compound in the list below?
1. CCCCNc1ccccc1
2. COC(=O)CCC(F)(F)C(F)(F)C(F)(F)C(F)(F)F
3. FC(F)(F)C(F)(F)C(F)(F)C(F)(F)CCI
4. C=C(C)C(=O)OCC(F)(F)C(F)(F)C(F)(F)F
5. CCCCCCCOC(=O)c1ccccc1C(=O)OCCCCCCC

Resp:
inactive
inactive
inactive
inactive
inactive

Provide the reported AC50 of each entry below, same order.
1. O=S(=O)(O)C(F)(F)C(F)(F)C(F)(F)C(F)(F)C(F)(F)C(F)(F)C(F)(F)F
2. Cc1ccc(S(=O)(=O)OCC(F)(F)C(F)(F)C(F)(F)C(F)(F)C(F)(F)C(F)F)cc1
3. CCCCCCCCC(F)(F)C(F)(F)C(F)(F)C(F)(F)C(F)(F)C(F)(F)F
4. O[Si](c1ccccc1)(c1ccccc1)c1ccccc1
5. FC(F)(F)C(F)(F)CNCC(F)(F)C(F)(F)F
6. c1ccc(-c2ccccc2-c2ccccc2)cc1

Resp:
inactive
inactive
inactive
33.3 µM (active)
inactive
inactive

Kindly give each listed record's AC50.
1. COC(=O)C1CCC(C(=O)OC)CC1 (stereo not drawn)
2. OCC(F)(F)C(F)(F)C(F)(F)C(F)(F)C(F)(F)C(F)F

Resp:
1: inactive; 2: inactive

Would you mind listing AC50 for each of the following compounds?
1. CCN(CC)c1ccc2c(C)cc(=O)oc2c1
2. Cc1cccc(N(C)C)c1

Resp:
71.9 µM (active)
inactive

###

Experiment: CCTE_Padilla_ZF_Score.Any: CCTE's 144 Hour Post-fertilization zebrafish Assay Score for Any Mortality or Malformation, Padilla Lab (AID 2284416)
Description: CCTE_Padilla_ZF_Phenotype_Score is a whole embryo, multiplexed assay using zebrafish ova exposed for 144 hours post fertilization on a 96-well plate.CCTE_Padilla_ZF_Score.Any is one of one assay component(s) measured or calculated from the CCTE_Padilla_ZF_Phenotype_Score assay. […] This assay endpoint, CCTE_Padilla_ZF_Score.Any, was analyzed in the positive analysis fitting direction relative to DMSO as the negative control and baseline of activity. […]
The source made the active and inactive calls. How the source made its calls: active means hit-call score of the fitted dose curve at least 0.9, where 1 is the maximum; inactive means score below 0.9.
Hi there, use one of these labels in your reply, thanks! active, inactive

| COMPOUND STRUCTURE STRING | CLASS LABEL |
| --- | --- |
| O=C(CC(=O)C(F)(F)C(F)(F)F)C(F)(F)F | inactive |
| OCC(F)(F)C(F)(F)C(F)(F)C(F)(F)C(F)(F)C(F)F | inactive |
| OCCCC(F)(F)C(F)(F)C(F)(F)F | inactive |
| FC(F)(F)C(F)(F)C(F)(F)C(F)(F)C(F)(F)CCI | active |
| C=C(C)C(=O)OCCC(F)(F)C(F)(F)C(F)(F)C(F)(F)C(F)(C(F)(F)F)C(F)(F)F | inactive |

Field: next compound
Req: Assay result, entry `FC(F)(I)C(F)(F)C(F)(F)C(F)(F)I` — outcome?
Resp: active

###

read-out: Macrophage colony-stimulating factor (MCSF), CSF1 (gene 1435); assay: BSK_CASM3C_MCSF: BioMAP Diversity Plus: CASM3C Assay for Macrophage colony-stimulating factor (MCSF) Biomarker Activity (AID 2283044); conditions: primary human coronary artery smooth muscle cells; actives raise or lower the signal;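 also: M-CSF protein amount quantified by ELISA after 24 h exposure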
Activity calls are given as the source filed them. How the source made its calls: active means hit-call score of the fitted dose curve at least 0.9, where 1 is the maximum; inactive means score below 0.9.
Select the matching outcome among active, inactive

Req: Hi, sorry to bother you, what did the test record for `FC(F)(F)C(F)(F)C(F)(F)C(F)(F)C(F)(F)C(F)(F)C(F)(F)I` ?
Resp: inactive

###

target: Estrogen receptor (Homo sapiens) + Estrogen receptor beta (Homo sapiens) (UniProt P03372+Q92731); test: OT_ER_ERaERb_0480: Odyssey Thera (OT) 8-hour HEK293T Protein-Complementation Assay for Estrogen Receptor-alpha/-beta Heterodimer (AID 2283352)
Sequence (P03372 whole entry, looked up): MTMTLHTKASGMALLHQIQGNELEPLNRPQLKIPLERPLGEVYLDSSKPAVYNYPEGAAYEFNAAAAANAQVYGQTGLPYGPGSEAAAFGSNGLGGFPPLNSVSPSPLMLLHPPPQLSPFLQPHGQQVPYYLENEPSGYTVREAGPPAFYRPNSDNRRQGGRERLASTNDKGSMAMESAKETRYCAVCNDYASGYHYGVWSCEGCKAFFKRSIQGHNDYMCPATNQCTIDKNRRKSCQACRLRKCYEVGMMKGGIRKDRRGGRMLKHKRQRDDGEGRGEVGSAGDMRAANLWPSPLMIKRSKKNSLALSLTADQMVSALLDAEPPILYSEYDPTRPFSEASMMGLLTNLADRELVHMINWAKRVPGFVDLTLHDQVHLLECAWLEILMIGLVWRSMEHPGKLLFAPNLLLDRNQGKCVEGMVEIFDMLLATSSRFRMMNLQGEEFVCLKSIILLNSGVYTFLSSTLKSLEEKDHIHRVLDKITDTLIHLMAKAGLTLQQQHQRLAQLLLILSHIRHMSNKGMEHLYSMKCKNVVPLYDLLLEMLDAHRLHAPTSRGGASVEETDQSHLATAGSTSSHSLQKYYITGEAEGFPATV
Sequence (Q92731 whole entry, looked up): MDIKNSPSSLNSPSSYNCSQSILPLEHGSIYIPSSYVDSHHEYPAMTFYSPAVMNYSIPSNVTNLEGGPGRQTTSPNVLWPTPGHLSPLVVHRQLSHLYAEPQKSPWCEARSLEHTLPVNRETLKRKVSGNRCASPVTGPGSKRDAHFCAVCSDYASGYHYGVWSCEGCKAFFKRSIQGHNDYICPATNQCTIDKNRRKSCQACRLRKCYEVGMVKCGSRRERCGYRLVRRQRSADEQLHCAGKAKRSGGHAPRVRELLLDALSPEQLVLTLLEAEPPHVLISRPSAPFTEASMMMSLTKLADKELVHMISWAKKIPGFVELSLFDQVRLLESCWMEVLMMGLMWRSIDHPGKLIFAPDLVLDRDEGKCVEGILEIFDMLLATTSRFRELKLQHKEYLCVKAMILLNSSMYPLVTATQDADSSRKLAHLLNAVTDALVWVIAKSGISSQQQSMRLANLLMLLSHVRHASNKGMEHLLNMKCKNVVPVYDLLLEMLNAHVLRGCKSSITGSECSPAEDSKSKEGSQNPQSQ
Results filed as inconclusive are left out. Active and inactive are the calls of the source. The calls were made as follows: active = hit-call score of the fitted dose curve at least 0.9, where 1 is the maximum; inconclusive = response in the unintended direction; inactive = score below 0.9.
API: response.call in label 1 (active), label 0 (inactive)

| COMPOUND | CLASS LABEL |
| --- | --- |
| CCCCCCC(C)OC(=O)CCCCC(=O)OC(C)CCCCCC (stereo not given) | label 0 |

Req: So what was the verdict on CC(CCl)OP(=O)(OC(C)CCl)OC(C)CCl (stereo not given) in this test?
Resp: label 0

Req: Hi team, can someone confirm the assay call for `C1COCCN1` ?
Resp: label 0

Req: Test call for this compound, please: `[Co]`
Resp: label 0

Req: Lab log entry: `CCCCCCOC(=O)c1ccccc1O` — outcome as called in the assay?
Resp: label 1

###

read-out: Monocyte Chemoattractant Protein-1 (MCP1), CCL2 (gene 6347); assay: BSK_hDFCGF_MCP1: BioMAP Diversity Plus: hDFCGF Assay for Monocyte Chemoattractant Protein-1 (MCP1) Biomarker Activity (AID 2284285); settings: primary human foreskin fibroblasts
Activity calls are given as the source filed them. How the source made its calls: active means hit-call score of the fitted dose curve at least 0.9, where 1 is the maximum; inactive means score below 0.9.
// allowed return values: active, inactive

Answered examples (3):
| MOLECULE | CLASS LABEL |
| --- | --- |
| C=C(C)C(=O)OCC(F)(F)C(F)(F)C(F)(F)F | inactive |
| O=S(=O)(OCC(F)F)C(F)(F)F | inactive |
| COC(=O)CCC(F)(F)C(F)(F)C(F)(F)C(F)(F)F | inactive |

Req: Tell me the assay call for `CCO[Si](CCC(F)(F)C(F)(F)C(F)(F)C(F)(F)C(F)(F)C(F)(F)F)(OCC)OCC` please.
Resp: inactive

Req: Status in this test for O=C(O)C(F)(OC(F)(F)C(F)(OC(F)(F)C(F)(F)C(F)(F)F)C(F)(F)F)C(F)(F)F (stereo unspecified) ?
Resp: inactive

Req: Status in this test for CCCCC(CC)COP(=O)(O)OCC(CC)CCCC (stereo unspecified) ?
Resp: active

Req: Given `FC(F)(F)C(F)(F)C(F)(F)C(F)(F)C(F)(F)C(F)(F)C(F)(F)I` , state the outcome it received in this test.
Resp: inactive

Req: Answer briefly: the call reported for `OCCCC(F)(F)C(F)(F)C(F)(F)F` in this assay.
Resp: inactive

Req: Test call for this molecule, please: `OCC(F)(F)C(F)(F)C(F)(F)C(F)(F)C(F)(F)C(F)F`
Resp: inactive

Req: Could you check what this test reported for `FC(F)(F)C(F)(F)C(F)(F)N(C(F)(F)C(F)(F)C(F)(F)F)C(F)(F)C(F)(F)C(F)(F)F` ?
Resp: inactive

Req: Test call for this molecule, please: `O=C(O)C(F)(F)C(F)(F)OC(F)(F)F`
Resp: inactive

###

experiment: ACEA_ER_AUC_viability: ACEA Biosciences xCELLigence Real-Time Cell Analysis on Estrogen Receptor Agonism for Viability (AID 2283782);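 also: continuous compound exposure with impedance area under curve over 80 h; hit means loss of impedance signal meaning reduced cell growth or viability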
Records with an inconclusive call do not appear. Active and inactive are the calls of the source. Rule for the calls: active = hit-call score of the fitted dose curve at least 0.9, where 1 is the maximum; inconclusive = response in the unintended direction; inactive = score below 0.9.
Write down the outcome that applies. Available outcomes: active, inactive

Worked cases, answers included:
| COMPOUND | CLASS LABEL |
| --- | --- |
| CCCCCCCCCCCCCCCC[N+](C)(C)Cc1ccccc1 | active |
| FC(F)(F)C(F)(F)C(F)(F)CI | inactive |
| O=S(=O)(O)C(F)(F)C(F)(F)C(F)(F)C(F)(F)C(F)(F)C(F)(F)C(F)(F)F | inactive |

Req: Outcome logged for `CO[Si](OC)(c1ccccc1)c1ccccc1` in this assay:
Resp: active

Req: Could you check what this test reported for `c1ccc(-c2ccccc2-c2ccccc2)cc1` ?
Resp: active

Req: Tell me the assay call for `O=C(O)C(F)(F)C(F)(F)C(F)(F)F` please.
Resp: inactive

Req: Per the assay record, what outcome was assigned to `Cc1ccc(S(=O)(=O)OCC(F)(F)C(F)(F)C(F)(F)C(F)(F)C(F)(F)C(F)F)cc1` ?
Resp: active

Req: So what was the verdict on `CC/C=C\CCOC(C)=O` in this test?
Resp: inactive

Req: Identify the outcome logged in this assay for the compound shown: `CCCCCCCOC(=O)c1ccccc1C(=O)OCCCCCCC`
Resp: inactive
